# Protocol Summary: cytotoxicity in HPDE-C7 cells, cell-based, fluorescence, HTS (AID 430);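 further: cells exposed to compound for 48 hours before viability readout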
# Experimental Context: HPDE-C7 pancreatic duct cells viability, at 10 µM, stronger effect = higher value
Screen size: about 63,000 compounds; about 1,100 (1.7%) were called active. The list comes from a sample in which actives are over-represented; it also holds close analogues and randomly drawn compounds. Potency and affinity values are given separately.
Response field label takes Yes when cytotoxicity is strictly below 10% and No in all other cases.

# input Hello, is cytotoxicity of the following compound strictly smaller than 10%? CCCCN(CC)S(=O)(=O)c1ccc(C(=O)Nc2nnc(CSC)o2)cc1
# output No

# input Please state whether cytotoxicity is below 10% for CCN(c1ccccc1)S(=O)(=O)c1ccc(C(=O)Nc2nnc(COC)o2)cc1
# output No

# input Is cytotoxicity of CCc1nnc(NC(=O)c2ccc(S(=O)(=O)N(CCOC)CCOC)cc2)o1 strictly below 10%?
# output Yes

# input Is the reported cytotoxicity for CCOc1cc(NC(=O)c2ccco2)c(OCC)cc1NC(=O)Cc1ccc(OC)c(OC)c1 strictly below 10%?
# output Yes

# input Is cytotoxicity strictly under 10% for the entry CCOc1ccc(-c2[nH]ncc2Oc2ccccc2OC)c(O)c1 ?
# output No

# input Say whether its cytotoxicity is strictly beneath 10%. Entry: C=C(C)COc1ccc(-c2[nH]ncc2Oc2ccccc2OCC)c(O)c1
# output No

# input For CCCCN(CCCC)S(=O)(=O)c1ccc(C(=O)Nc2nnc(CSC)o2)cc1 , is the recorded cytotoxicity below the cut-off of 10%?
# output No

# input Bench note: check whether CC(Sc1ccccc1)C(=O)Nc1ccc(S(=O)(=O)N2CCOCC2)cc1 (stereo not given) shows cytotoxicity below 10%
# output Yes

# input Find out if reported cytotoxicity for CCCN(CCC)S(=O)(=O)c1ccc(C(=O)Nc2nnc(CSC)o2)cc1 is less than 10%
# output No

# input Quick check: cytotoxicity of COCc1nnc(NC(=O)c2ccc(S(=O)(=O)N(C)c3ccccc3)cc2)o1 under 10%?
# output No
